Data provenance: the supplement of paper PMC3334620

# Measurement Target: Cst6 (UniProt P40535)
# Sequence (P40535 whole entry): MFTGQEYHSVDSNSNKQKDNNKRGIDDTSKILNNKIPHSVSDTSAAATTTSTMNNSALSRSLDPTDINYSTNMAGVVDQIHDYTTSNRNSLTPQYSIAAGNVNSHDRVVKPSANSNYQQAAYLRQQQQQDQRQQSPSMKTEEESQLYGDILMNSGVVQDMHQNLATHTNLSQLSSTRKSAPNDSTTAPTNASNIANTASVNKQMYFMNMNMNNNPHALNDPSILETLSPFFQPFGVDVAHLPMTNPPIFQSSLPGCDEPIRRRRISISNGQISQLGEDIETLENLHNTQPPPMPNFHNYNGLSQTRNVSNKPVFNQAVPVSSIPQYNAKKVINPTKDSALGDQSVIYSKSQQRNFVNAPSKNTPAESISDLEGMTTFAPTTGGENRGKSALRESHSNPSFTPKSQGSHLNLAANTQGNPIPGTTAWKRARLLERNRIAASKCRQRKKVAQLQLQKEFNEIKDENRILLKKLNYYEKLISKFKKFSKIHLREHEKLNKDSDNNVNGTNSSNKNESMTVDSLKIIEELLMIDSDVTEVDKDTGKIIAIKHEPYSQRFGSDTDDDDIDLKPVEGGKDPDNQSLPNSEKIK
# Procedure Details: PBM E-score (8-mer binding enrichment) (E-score (-0.5 to 0.5)); higher = stronger / more preferred TF binding
# Measurement Conditions: protein concentration: 200 nM; construct: GST-DNA-binding domain
The full ranking holds about 33,000 sequences; the median of “E-score (-0.5 to 0.5)” is about -0.016, and the highest 2% start at about 0.31. For the sample, the highest values were picked, then their nearest neighbours and some sequences at random.
// map PBM E-score to label using band 1 = under 0.1, band 2 = from 0.1 up to 0.3, band 3 = 0.3 and over

Worked cases, answers included:
ACCGTCAT: band 3
CGTAATTC: band 3
ATAGTGAC: band 3

Problem: // bin(item) where item = "AATAATCA"
Result: band 2

Problem: Band of "CTCGTCAC" ?
Result: band 3

Problem: Hi there! Could you help me figure out the category for "GGTAATTA" please?
Result: band 2

Problem: Kindly identify the class of "TCACGTCA" .
Result: band 3

Problem: Category lookup for the sequence "CGTAATCA"
Result: band 3

Problem: Band of "CCAGATAG" ?
Result: band 1

Problem: // bin(item) where item = "AGTAATTC"
Result: band 2

Problem: Tag the class for "CCACGTCG"
Result: band 1

Problem: Band assignment needed for "ACACGTCA" please.
Result: band 3

Problem: Each sequence maps to one class by PBM E-score. Which class for "ACACGTCT" ?
Result: band 1
